target: Nuclear receptor ROR-gamma (Mus musculus) (UniProt P51450); assay: qHTS for inhibitors of ROR gamma transcriptional activity; conditions: Drosophila S2 Gal4-RORgamma UAS-luciferase reporter, 20 h; series mostly up to 53.6 µM; also: nearly all actives have a fitted effect of over 60% in size
Sequence (P51450 whole entry, looked up, the tested form may be a part): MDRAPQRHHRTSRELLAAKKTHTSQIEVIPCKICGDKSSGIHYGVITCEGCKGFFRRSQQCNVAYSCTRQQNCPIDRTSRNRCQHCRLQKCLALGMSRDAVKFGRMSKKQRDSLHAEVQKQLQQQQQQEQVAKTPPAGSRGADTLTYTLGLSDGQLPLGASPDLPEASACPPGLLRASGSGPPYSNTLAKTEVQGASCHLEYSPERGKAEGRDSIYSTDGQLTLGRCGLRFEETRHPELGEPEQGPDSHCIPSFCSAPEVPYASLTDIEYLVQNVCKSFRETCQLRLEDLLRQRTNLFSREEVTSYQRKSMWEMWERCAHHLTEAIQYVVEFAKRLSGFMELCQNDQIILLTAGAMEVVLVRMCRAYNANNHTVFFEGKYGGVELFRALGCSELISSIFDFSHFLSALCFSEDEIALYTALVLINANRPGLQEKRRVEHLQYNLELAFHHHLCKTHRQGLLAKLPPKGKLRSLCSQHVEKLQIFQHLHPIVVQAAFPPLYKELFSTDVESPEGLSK
Among all 310,000 compounds or so, about 17,000 (5.5%) were called active. Roughly 11% stayed inconclusive and do not appear here. Calls follow the shape of the dose curve; as a rule, active = well fitted inhibition curve with a large enough effect; inconclusive = small, poorly fitted or top-dose-only effect, or effect the other way; inactive = no such curve, though single readings can be large or run the other way. For the sample, actives were picked, then their nearest neighbours and some compounds at random.
Outcomes: YES (active), NO (inactive)

>>> assigned_category("Cc1nc2ccccc2c(=O)n1Cc1ccc([N+](=O)[O-])cc1")
"NO"
>>> assigned_category("COc1cc(C(C(=O)NC2CCCC2)N(Cc2ccccc2)C(=O)c2snc(C(N)=O)c2N)ccc1O (stereo not given)")
"NO"
>>> assigned_category("COC(=O)c1ccc2c(C(C)(C)O)c(C(C)(C)O)[nH]c2c1")
"NO"
>>> assigned_category("CCC1=Nc2cc(C(=O)NCCCN3CCOCC3)ccc2Sc2ccc(Br)cc21")
"NO"
>>> assigned_category("CCn1c(/C=C/c2ccc([N+](=O)[O-])o2)nc2ccccc2c1=O")
"YES"
